targetDesc: Fc-fusion protein of human PSMA (hPSMA-Fc) (Homo sapiens)
Construct: purchased Acro Biosystems PSA-H5264
assayNotes: Surface plasmon resonance assay (Biacore T200, single cycle kinetic)
Assay type: binding
measurementSetup: pKD category for PSMA SPR activity assay, hPSMA-Fc, 25° C.; read-out: pKD CAT (converted)
Numbered stars: 1 amine (or outer) side, 2 acyl side, 3 side chain; on linkers, the order of the positions; unused ones are H or OH. Bridge positions count the residues as written; N and C are the ends. Square brackets hold non-standard residues; d marks the D form. Peptide text beside a SMILES is read from it. * marks the point of attachment. DOTA = O=C(O)CN1CCN(CC(=O)O)CCN(CC(=O)*)CCN(CC(=O)O)CC1; Phe(4-Cl) = N[C@@H](Cc1ccc(Cl)cc1)C(=O)O; NMeT = CN[C@H](C(=O)O)[C@@H](C)O; αMeF = C[C@](N)(Cc1ccccc1)C(=O)O; X1 = O=C(CC1CCN([*:1])CC1)[*:2]; Tle = CC(C)(C)[C@H](N)C(=O)O; Aib = CC(C)(N)C(=O)O
Below is a list of entries, each paired with its recorded Kd value.
experimentalReadout: Kd

{"columns": ["compound", "targetDesc", "val"],
 "data": [
  ["CC(=O)N[C@H](C(=O)NC(C)(C)C(=O)N[C@@H](Cc1ccc(O)cc1)C(=O)N[C@H]1CSSC[C@@H](C(=O)N[C@H](C(=O)N[C@H](C(=O)N[C@@H](CC(=O)O)C(N)=O)[C@@H](C)O)C(C)(C)C)NC(=O)[C@H](CC(N)=O)NC(=O)C(C)(C)NC(=O)[C@H](CCCNC(=N)N)NC(=O)[C@H](CCCCN)NC1=O)[C@@H](C)O [PSM-0488] (Ac-T[Aib]YCKR[Aib]NC[Tle]TD-NH2; disulfide 4-9)", "Fc-fusion protein of human PSMA (hPSMA-Fc) (Homo sapiens)", "12.6 to 126 nM"],
  ["CC(=O)N[C@H](C(=O)N[C@@H](C)C(=O)N[C@@](C)(Cc1ccccc1)C(=O)N[C@H]1CSSC[C@@H](C(=O)N[C@H](C(=O)N[C@H](C(N)=O)[C@@H](C)O)C(C)(C)C)NC(=O)[C@H](CC(N)=O)NC(=O)C(C)(C)NC(=O)[C@H](CCCNC(=N)N)NC(=O)[C@H](CCCCN)NC1=O)[C@@H](C)O [PSM-0414] (Ac-TA[αMeF]CKR[Aib]NC[Tle]T-NH2; disulfide 4-9)", "Fc-fusion protein of human PSMA (hPSMA-Fc) (Homo sapiens)", "12.6 to 126 nM"],
  ["CC(C)[C@H](NC(=O)[C@@H]1CSSC[C@H](NC(=O)[C@H](Cc2ccc(Cl)cc2)NC(=O)C(C)(C)NC(=O)[C@@H](NC(=O)CC2CCN(C(=O)CN3CCN(CC(=O)O)CCN(CC(=O)O)CCN(CC(=O)O)CC3)CC2)[C@@H](C)O)C(=O)N[C@@H](CCCCN)C(=O)N[C@@H](CCCNC(=N)N)C(=O)NC(C)(C)C(=O)N[C@@H](CC(N)=O)C(=O)N1)C(=O)N(C)[C@H](C(N)=O)[C@@H](C)O [PSM-0377] ({DOTA}-[X1]T[Aib][Phe(4-Cl)]CKR[Aib]NCV[NMeT]-NH2; disulfide 5-10)", "Fc-fusion protein of human PSMA (hPSMA-Fc) (Homo sapiens)", "< 12.6 nM"]
]}

###

targetDesc: PSMA-expressing C4-2 cells (Homo sapiens)
Construct: PSMA-expressing C4-2 cells (ATCC, Cat. No. CRL-3314) were cultured in RPMI-1640; host or cells: C4-2 cells
Sequence (Q04609 whole entry): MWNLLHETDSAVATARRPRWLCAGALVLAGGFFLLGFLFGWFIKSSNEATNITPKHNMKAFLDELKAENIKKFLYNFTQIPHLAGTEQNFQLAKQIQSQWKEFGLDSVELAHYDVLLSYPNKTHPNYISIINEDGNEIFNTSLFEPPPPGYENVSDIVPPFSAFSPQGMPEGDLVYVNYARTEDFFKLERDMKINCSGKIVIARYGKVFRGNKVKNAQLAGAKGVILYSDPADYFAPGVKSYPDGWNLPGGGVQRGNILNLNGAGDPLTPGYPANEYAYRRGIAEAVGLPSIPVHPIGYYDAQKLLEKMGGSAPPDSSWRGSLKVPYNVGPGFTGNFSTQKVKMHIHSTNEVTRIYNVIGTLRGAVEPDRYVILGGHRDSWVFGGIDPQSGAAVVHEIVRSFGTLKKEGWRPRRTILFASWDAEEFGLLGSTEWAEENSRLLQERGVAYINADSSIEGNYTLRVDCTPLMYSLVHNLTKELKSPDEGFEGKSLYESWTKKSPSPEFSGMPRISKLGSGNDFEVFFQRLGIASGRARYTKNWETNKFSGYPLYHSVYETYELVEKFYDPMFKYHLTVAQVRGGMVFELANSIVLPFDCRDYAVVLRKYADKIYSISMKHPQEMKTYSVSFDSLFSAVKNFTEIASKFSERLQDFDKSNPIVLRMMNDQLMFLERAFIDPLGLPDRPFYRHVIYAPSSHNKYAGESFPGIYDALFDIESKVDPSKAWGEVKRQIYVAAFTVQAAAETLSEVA
assayNotes: FACS binding assay (competition with 50 nM PSM-0183)
measurementSetup: FACS binding, C4-2 cells, competition with 50 nM PSM-0183; category; read-out: pIC50 [C4-2] CAT (converted)
Numbered stars: 1 amine (or outer) side, 2 acyl side, 3 side chain; on linkers, the order of the positions; unused ones are H or OH. Bridge positions count the residues as written; N and C are the ends. Square brackets hold non-standard residues; d marks the D form. Side chains are listed from the residue outwards. Peptide text beside a SMILES is read from it. * marks the point of attachment. X3 = O=C(O)CN1CCN(CC(=O)O)CCN(CC(=O)NCCCOCCOCCOCCCN*)CCN(CC(=O)O)CC1; DOTA = O=C(O)CN1CCN(CC(=O)O)CCN(CC(=O)*)CCN(CC(=O)O)CC1; Suc = O=C(CCC(=O)[*:2])[*:1]; Tle = CC(C)(C)[C@H](N)C(=O)O; 4Abz = Nc1ccc(C(=O)O)cc1; Aib = CC(C)(N)C(=O)O
Entries and their IC50 values follow.

{"columns": ["compound", "targetDesc", "IC50"],
 "data": [
  ["C[C@@H]1NC(=O)[C@H](CCCNC(=N)N)NC(=O)[C@H](CCCCN)NC(=O)[C@@H](NC(=O)[C@H](Cc2ccccc2)NC(=O)[C@H](C)NC(=O)[C@@H](NC(=O)CCC(=O)NCCCOCCOCCOCCCNC(=O)CN2CCN(CC(=O)O)CCN(CC(=O)O)CCN(CC(=O)O)CC2)[C@@H](C)O)CSSC[C@@H](C(N)=O)NC(=O)[C@H](CC(N)=O)NC1=O [PSM-0201] ({X3-Suc}-TAFCKRANC-NH2; disulfide 4-9)", "PSMA-expressing C4-2 cells (Homo sapiens)", "> 3160 nM"],
  ["CC(=O)N[C@H](C(=O)NC(C)(C)C(=O)N[C@@H](Cc1ccccc1)C(=O)N[C@H]1CSSC[C@@H](C(=O)N[C@H](C(=O)N[C@H](C(N)=O)[C@@H](C)O)C(C)(C)C)NC(=O)[C@H](CC(N)=O)NC(=O)[C@H](CCCCNC(=O)c2ccc(NC(=O)CN3CCN(CC(=O)O)CCN(CC(=O)O)CCN(CC(=O)O)CC3)cc2)NC(=O)[C@H](CCCNC(=N)N)NC(=O)[C@H](CCCCN)NC1=O)[C@@H](C)O [PSM-0211] (Ac-T[Aib]FCKRK([4Abz-DOTA])NC[Tle]T-NH2; disulfide 4-9)", "PSMA-expressing C4-2 cells (Homo sapiens)", "< 200 nM"]
]}

###

targetDesc: Fc-fusion protein of human PSMA (hPSMA-Fc) (Homo sapiens, UniProt Q04609)
Construct: purchased Acro Biosystems PSA-H5264
Sequence (Q04609 44-750 limits assumed): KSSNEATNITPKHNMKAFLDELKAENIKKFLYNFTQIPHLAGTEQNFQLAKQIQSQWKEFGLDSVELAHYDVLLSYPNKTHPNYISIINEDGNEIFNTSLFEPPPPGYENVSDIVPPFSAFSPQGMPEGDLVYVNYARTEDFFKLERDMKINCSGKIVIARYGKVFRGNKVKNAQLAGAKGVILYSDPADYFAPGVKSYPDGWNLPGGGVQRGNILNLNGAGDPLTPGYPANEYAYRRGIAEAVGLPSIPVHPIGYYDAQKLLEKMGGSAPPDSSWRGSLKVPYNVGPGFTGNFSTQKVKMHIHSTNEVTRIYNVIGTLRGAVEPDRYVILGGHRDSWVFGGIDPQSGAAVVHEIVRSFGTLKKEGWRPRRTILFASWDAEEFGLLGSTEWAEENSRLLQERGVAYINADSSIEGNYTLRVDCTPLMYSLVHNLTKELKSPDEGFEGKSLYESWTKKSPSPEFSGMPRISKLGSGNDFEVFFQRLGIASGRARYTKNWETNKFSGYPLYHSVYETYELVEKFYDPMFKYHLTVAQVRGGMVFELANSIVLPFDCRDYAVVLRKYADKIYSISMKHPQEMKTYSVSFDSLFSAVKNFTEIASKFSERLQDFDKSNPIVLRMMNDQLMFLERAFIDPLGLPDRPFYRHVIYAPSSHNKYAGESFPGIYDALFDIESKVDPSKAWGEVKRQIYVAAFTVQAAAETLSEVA
assayNotes: Surface plasmon resonance assay (Biacore T200, single cycle kinetic)
Format: binding
measurementSetup: SPR, hPSMA-Fc, single cycle kinetic, 25° C.; category; read-out: pKD CAT (converted)
Numbered stars: 1 amine (or outer) side, 2 acyl side, 3 side chain; on linkers, the order of the positions; unused ones are H or OH. Bridge positions count the residues as written; N and C are the ends. Square brackets hold non-standard residues; d marks the D form. Peptide text beside a SMILES is read from it. * marks the point of attachment. X3 = O=C(O)CN1CCN(CC(=O)O)CCN(CC(=O)NCCCOCCOCCOCCCN*)CCN(CC(=O)O)CC1; DOTA = O=C(O)CN1CCN(CC(=O)O)CCN(CC(=O)*)CCN(CC(=O)O)CC1; Arg(NO2) = N=C(NCCC[C@H](N)C(=O)O)N[N+](=O)[O-]; Phe(4-Cl) = N[C@@H](Cc1ccc(Cl)cc1)C(=O)O; X1 = O=C(CC1CCN([*:1])CC1)[*:2]; Cit = NC(=O)NCCC[C@H](N)C(=O)O; Lys(Me) = CNCCCC[C@H](N)C(=O)O; Suc = O=C(CCC(=O)[*:2])[*:1]; Tle = CC(C)(C)[C@H](N)C(=O)O; Aib = CC(C)(N)C(=O)O; βAla = NCCC(=O)O
Reported Kd values follow for various compounds
experimentalReadout: Kd

{"columns": ["compound", "val"],
 "data": [
  ["CC(=O)N[C@H](C(=O)NC(C)(C)C(=O)N[C@@H](Cc1ccccc1)C(=O)N[C@H]1CSSC[C@@H](C(=O)N[C@H](C(N)=O)C(C)(C)C)NC(=O)[C@H](CC(N)=O)NC(=O)C(C)(C)NC(=O)[C@H](CCCNC(=N)N)NC(=O)[C@H](CCCCN)NC1=O)[C@@H](C)O [PSM-0230] (Ac-T[Aib]FCKR[Aib]NC[Tle]-NH2; disulfide 4-9)", "< 12.6 nM"],
  ["C[C@@H](O)[C@H](NC(=O)[C@@H](NC(=O)[C@@H]1CSSC[C@H](NC(=O)[C@H](Cc2ccccc2)NC(=O)C(C)(C)NC(=O)[C@@H](NC(=O)CCNC(=O)CN2CCN(CC(=O)O)CCN(CC(=O)O)CCN(CC(=O)O)CC2)[C@@H](C)O)C(=O)N[C@@H](CCCCN)C(=O)N[C@@H](CCCNC(=N)N)C(=O)NC(C)(C)C(=O)N[C@@H](CC(N)=O)C(=O)N1)C(C)(C)C)C(N)=O [PSM-0209] ({DOTA-βAla}-T[Aib]FCKR[Aib]NC[Tle]T-NH2; disulfide 4-9)", "< 12.6 nM"],
  ["CNCCCC[C@@H]1NC(=O)[C@@H](NC(=O)[C@H](Cc2ccc(Cl)cc2)NC(=O)C(C)(C)NC(=O)[C@@H](NC(=O)CC2CCN(C(=O)CN3CCN(CC(=O)O)CCN(CC(=O)O)CCN(CC(=O)O)CC3)CC2)[C@@H](C)O)CSSC[C@@H](C(=O)N[C@H](C(=O)N[C@H](C(N)=O)[C@@H](C)O)C(C)(C)C)NC(=O)[C@H](CC(N)=O)NC(=O)C(C)(C)NC(=O)[C@H](CCCNC(=N)N[N+](=O)[O-])NC1=O [PSM-0254] ({DOTA}-[X1]T[Aib][Phe(4-Cl)]C[Lys(Me)][Arg(NO2)][Aib]NC[Tle]T-NH2; disulfide 5-10)", "< 12.6 nM"],
  ["C[C@@H](O)[C@H](NC(=O)[C@@H](NC(=O)[C@@H]1CSSC[C@H](NC(=O)[C@H](Cc2ccccc2)NC(=O)C(C)(C)NC(=O)[C@@H](NC(=O)CCC(=O)NCCCOCCOCCOCCCNC(=O)CN2CCN(CC(=O)O)CCN(CC(=O)O)CCN(CC(=O)O)CC2)[C@@H](C)O)C(=O)N[C@@H](CCCCN)C(=O)N[C@@H](CCCNC(N)=O)C(=O)NC(C)(C)C(=O)N[C@@H](CC(N)=O)C(=O)N1)C(C)(C)C)C(N)=O [PSM-0234] ({X3-Suc}-T[Aib]FCK[Cit][Aib]NC[Tle]T-NH2; disulfide 4-9)", "12.6 to 126 nM"]
]}
